- Tested on: HOP-62
- assay_protocol: NCI tumour cell line growth inhibition, 48 h
Active and inactive are the calls of the source. Rule as the data show it: active = GI50 up to about 1.1 µM and inactive = higher.
recorded_endpoint: GI50

// lookup GI50 for `O=C1CCC(=O)N1Cc1ccccc1/N=[N+](\[O-])c1ccccc1CN1C(=O)CCC1=O`
> 100 µM (inactive)

// lookup GI50 for `COc1ccc(Nc2c(C#N)c3n(c4ccccc24)c2ccccc2[n+]3C)cc1OC`
3.24 µM (inactive)

// lookup GI50 for `O=C(CO)CC(=O)C(=O)Nc1ccccc1`
> 100 µM (inactive)

====

- System: T47D
- assay_protocol: NCI tumour cell line growth inhibition, 48 h
Activity calls are given as the source filed them. Rule as the data show it: active = GI50 up to about 1.1 µM and inactive = higher.
Give measured GI50 for each item. Keep answers brief.

// lookup GI50 for O=C1O[C@H]2[C@H](OC(=O)c3cc(O)c(O)c(O)c3)[C@@H](OC(=O)c3cc(O)c(O)c4c3[C@@H]3C1=CC(=O)C(O)(O)C3(O)O4)[C@H](OC(=O)c1cc(O)c(O)c(O)c1)O[C@@H]2COC(=O)c1cc(O)c(O)c(O)c1 (some centres undefined)
54.7 µM (inactive)

// lookup GI50 for `COC(=O)C(CCSc1ccccc1)C(=O)OC`
> 100 µM (inactive)

// lookup GI50 for `O=C(O)c1c2c(c(O)c3c1CN(C1CCCCC1)CO3)OCN(C1CCCCC1)C2`
> 100 µM (inactive)

// lookup GI50 for CC1=NCC[N+]1(CCc1ccccc1)Cc1ccccc1 (centres undefined)
> 100 µM (inactive)
